Method Notes: Alamar blue cytotoxicity (CC50) in Y > H replicon cells
Type: cell-based
Run Conditions: human
Assay Readout: CC50 at 72 h

Quickly give me recorded CC50 at 72 h for O=C(Nc1ccc(/C=C/c2ccc(NC(=O)[C@@H]3CCCN3C(=O)Cc3ccccc3)cc2)cc1)[C@@H]1CCCN1C(=O)Cc1ccccc1
> 5 µM

Quickly give me recorded CC50 at 72 h for C[C@H](NC(=O)OCc1ccccc1)C(=O)Nc1ccc(C2S/C(=N\c3cccc(F)c3)N(Cc3ccco3)C2=O)cc1 (some centres unmarked) [Compound A, reference compound]
> 5 µM

---

Method Notes: Alamar blue cytotoxicity (CC50) in replicon cells
Format: cell-based
Run Conditions: human, wild-type HCV 1b-377-neo replicon cells
Assay Readout: CC50 at 72 h

Quickly give me recorded CC50 at 72 h for O=C(Nc1ccc(/C=C/c2ccc(NC(=O)[C@@H]3CCCN3C(=O)Cc3ccccc3)cc2)cc1)[C@@H]1CCCN1C(=O)Cc1ccccc1
> 5 µM

Quickly give me recorded CC50 at 72 h for C[C@H](NC(=O)OCc1ccccc1)C(=O)Nc1ccc(C2S/C(=N\c3cccc(F)c3)N(Cc3ccco3)C2=O)cc1 (some centres unmarked) [Compound A, reference compound]
> 5 µM

---

Tested on: HCV 1b-377-neo replicon cells
Method Notes: HCV replicon FRET assay
Format: cell-based
Run Conditions: Hepatitis C virus; HCV replicon; read-out: Activity (EC50)
Assay Readout: EC50

Quickly give me recorded EC50 for Cc1cc(/C=C/c2ccc(NC(=O)[C@@H]3CCCN3C(=O)Cc3ccccc3)c(C)c2)ccc1NC(=O)[C@@H]1CCCN1C(=O)Cc1ccccc1
0.1 to 90 nM

Quickly give me recorded EC50 for O=C(c1ccccc1)c1cccnc1C(=O)N1CCC[C@H]1C(=O)Nc1ccc(/C=C/c2ccc(NC(=O)[C@@H]3CCCN3C(=O)c3ncccc3C(=O)c3ccccc3)cc2)cc1
100 to 1000 nM

Quickly give me recorded EC50 for COc1ccc(Cl)cc1C(=O)N1CCC[C@H]1C(=O)Nc1ccc(/C=C/c2ccc(NC(=O)[C@@H]3CCCN3C(=O)c3cc(Cl)ccc3OC)cc2)cc1
1000 to 10000 nM

Quickly give me recorded EC50 for CC(=O)N[C@@H](C)C(=O)Nc1ccc(/C=C/c2ccc(NC(=O)[C@@H]3CCCN3C(=O)Cc3ccccc3)cc2)cc1
100 to 1000 nM

Quickly give me recorded EC50 for CN(Cc1ccccc1)c1ccccc1C(=O)N1CCC[C@H]1C(=O)Nc1ccc(/C=C/c2ccc(NC(=O)[C@@H]3CCCN3C(=O)c3ccccc3N(C)Cc3ccccc3)cc2)cc1
1000 to 10000 nM

Quickly give me recorded EC50 for O=C(Nc1ccc(/C=C/c2ccc(NC(=O)[C@@H]3C=CCN3C(=O)Cc3ccncc3)cc2)cc1)[C@@H]1C=CCN1C(=O)Cc1ccncc1
100 to 1000 nM

Quickly give me recorded EC50 for C=Cc1ccccc1C(=O)N1CCC[C@H]1C(=O)Nc1ccc(/C=C/c2ccc(NC(=O)[C@@H]3CCCN3C(=O)c3ccccc3C=C)cc2)cc1
1000 to 10000 nM

Quickly give me recorded EC50 for CN(C)[C@H]1C[C@@H](C(=O)Nc2ccc(/C=C/c3ccc(NC(=O)[C@@H]4C[C@H](N(C)C)CN4C(=O)c4ccccc4NCc4ccccc4)cc3)cc2)N(C(=O)c2ccccc2NCc2ccccc2)C1
1000 to 10000 nM

Quickly give me recorded EC50 for CC(C)(C)OC(=O)N1CCC[C@H]1C(=O)Nc1ccc(/C=C/c2ccc(NC(=O)[C@@H]3CCCN3C(=O)OC(C)(C)C)cc2)cc1
100 to 1000 nM

Quickly give me recorded EC50 for O=C(Nc1ccc(/C=C/c2ccc(NC(=O)[C@@H]3CCCN3C(=O)N3CCCC3)cc2)cc1)[C@@H]1CCCN1C(=O)N1CCCC1
100 to 1000 nM

Quickly give me recorded EC50 for Cc1onc(-c2ccccc2)c1C(=O)N1CCC[C@H]1C(=O)Nc1ccc(/C=C/c2ccc(NC(=O)[C@@H]3CCCN3C(=O)c3c(-c4ccccc4)noc3C)cc2)cc1
0.1 to 90 nM

---

Tested on: HCV 1b-377-neo replicon cells
Method Notes: HCV replicon FRET assay
Format: cell-based
Run Conditions: Hepatitis C virus; HCV replicon; read-out: Activity (EC50)
Assay Readout: EC50

Quickly give me recorded EC50 for CC(C)(C)O[C@@H]1C[C@@H](C(=O)Nc2ccc(/C=C/c3ccc(NC(=O)[C@@H]4C[C@@H](OC(C)(C)C)CN4C(=O)[C@H]4CCCO4)cc3)cc2)N(C(=O)[C@H]2CCCO2)C1
0.1 to 90 nM

Quickly give me recorded EC50 for CN(C)c1ccccc1C(=O)N1CCC[C@H]1C(=O)Nc1ccc(/C=C/c2ccc(NC(=O)[C@@H]3CCCN3C(=O)c3ccccc3N(C)C)cc2)cc1
1000 to 10000 nM

Quickly give me recorded EC50 for CCn1nc(C)cc1C(=O)N1CCC[C@H]1C(=O)Nc1ccc(/C=C/c2ccc(NC(=O)[C@@H]3CCCN3C(=O)c3cc(C)nn3CC)cc2)cc1
0.1 to 90 nM

Quickly give me recorded EC50 for CN(C)c1ccc(C(=O)N2CCC[C@H]2C(=O)Nc2ccc(/C=C/c3ccc(NC(=O)[C@@H]4CCCN4C(=O)C4CCC4)cc3)cc2)cc1
0.1 to 90 nM

Quickly give me recorded EC50 for CCOc1cccc(-c2cccnc2C(=O)N2CCC[C@H]2C(=O)Nc2ccc(/C=C/c3ccc(NC(=O)[C@@H]4CCCN4C(=O)c4ncccc4-c4cccc(OCC)c4)cc3)cc2)c1
1000 to 10000 nM

---

Tested on: HCV 1b-377-neo replicon cells
Method Notes: HCV replicon FRET assay
Type: cell-based
Run Conditions: Hepatitis C virus; HCV replicon; read-out: Activity (EC50)
pEC50: −log10 of the molar value.
Assay Readout: pEC50

Quickly give me recorded pEC50 for CC(C)C(=O)N1CCC[C@H]1C(=O)Nc1ccc(/C=C/c2ccc(NC(=O)[C@@H]3CCCN3C(=O)C(C)C)cc2)cc1
6.00 to 7.00

Quickly give me recorded pEC50 for CN(C)[C@H]1C[C@@H](C(=O)Nc2ccc(/C=C/c3ccc(NC(=O)[C@@H]4C[C@H](N(C)C)CN4C(=O)[C@H]4CCCO4)cc3)cc2)N(C(=O)[C@H]2CCCO2)C1
6.00 to 7.00

Quickly give me recorded pEC50 for O=C(Nc1ccc(/C=C/c2ccc(NC(=O)[C@@H]3C[C@@H](O)CN3C(=O)OCc3ccccc3)cc2)cc1)[C@@H]1C[C@@H](O)CN1C(=O)OCc1ccccc1
7.05 to 10.00

Quickly give me recorded pEC50 for Cc1cccc(C(=O)N2CCC[C@H]2C(=O)Nc2ccc(/C=C/c3ccc(NC(=O)[C@@H]4CCCN4C(=O)c4cccc(C)n4)cc3)cc2)n1
6.00 to 7.00

Quickly give me recorded pEC50 for [N-]=[N+]=Nc1cccc(CC(=O)N2CCC[C@H]2C(=O)Nc2ccc(/C=C/c3ccc(NC(=O)[C@@H]4CCCN4C(=O)Cc4cccc(N=[N+]=[N-])c4)cc3)cc2)c1
7.05 to 10.00

Quickly give me recorded pEC50 for O=C(Nc1ccc(/C=C/c2ccc(NC(=O)[C@@H]3CCCN3C(=O)Cc3c[nH]cn3)cc2)cc1)[C@@H]1CCCN1C(=O)Cc1c[nH]cn1
5.00 to 6.00

Quickly give me recorded pEC50 for CC(C)(C)CC(=O)N1CCC[C@H]1C(=O)Nc1ccc(/C=C/c2ccc(NC(=O)[C@@H]3CCCN3C(=O)CC(C)(C)C)cc2)cc1
6.00 to 7.00

Quickly give me recorded pEC50 for O=C(Nc1ccc(/C=C/c2ccc(NC(=O)[C@@H]3CCCN3C(=O)c3ccccc3NCc3ccccc3)cc2)cc1)[C@@H]1CCCN1C(=O)CC1CC1
6.00 to 7.00

Quickly give me recorded pEC50 for CN(C)C(=O)N1CCC[C@H]1C(=O)Nc1ccc(/C=C/c2ccc(NC(=O)[C@@H]3CCCN3C(=O)N(C)C)cc2)cc1
6.00 to 7.00

Quickly give me recorded pEC50 for O=C(Nc1ccc(/C=C/c2ccc(NC(=O)[C@@H]3CCCN3C(=O)Cc3ccccc3)cc2)cc1)[C@H]1CCCN1C(=O)Cc1ccccc1
6.00 to 7.00

Quickly give me recorded pEC50 for Cc1ccoc1C(=O)N1CCC[C@H]1C(=O)Nc1ccc(/C=C/c2ccc(NC(=O)[C@@H]3CCCN3C(=O)c3occc3C)cc2)cc1
6.00 to 7.00

Quickly give me recorded pEC50 for O=C(Nc1ccc(/C=C/c2ccc(NC(=O)[C@@H]3CCCN3C(=O)c3nc4ccccc4[nH]3)cc2)cc1)[C@@H]1CCCN1C(=O)c1nc2ccccc2[nH]1
5.00 to 6.00

Quickly give me recorded pEC50 for CC(C)(C)O[C@@H]1C[C@@H](C(=O)Nc2ccc(/C=C/c3ccc(NC(=O)C4CC4)cc3)cc2)N(C(=O)OCc2ccccc2)C1
6.00 to 7.00

Quickly give me recorded pEC50 for Cn1ccnc1C(=O)N1CCC[C@H]1C(=O)Nc1ccc(/C=C/c2ccc(NC(=O)[C@@H]3CCCN3C(=O)c3nccn3C)cc2)cc1
7.05 to 10.00

Quickly give me recorded pEC50 for O=C(Nc1ccc(/C=C/c2ccc(NC(=O)[C@@H]3CCCN3C(=O)c3ccc(C(F)(F)F)nc3Cl)cc2)cc1)[C@@H]1CCCN1C(=O)c1ccc(C(F)(F)F)nc1Cl
5.00 to 6.00

Quickly give me recorded pEC50 for O=C(Nc1ccc(/C=C/c2ccc(NC(=O)[C@@H]3CCCN3C(=O)c3ccccc3Cc3ccccc3)cc2)cc1)[C@@H]1CCCN1C(=O)c1ccccc1Cc1ccccc1
6.00 to 7.00

Quickly give me recorded pEC50 for CN(C(=O)[C@@H]1CCCN1C(=O)OCc1ccccc1)c1ccc(/C=C/c2ccc(N(C)C(=O)[C@@H]3CCCN3C(=O)OCc3ccccc3)cc2)cc1
5.00 to 6.00

Quickly give me recorded pEC50 for O=C(Nc1ccc(/C=C/c2ccc(NC(=O)[C@@H]3C=CCN3C(=O)Cc3ccccn3)cc2)cc1)[C@@H]1C=CCN1C(=O)Cc1ccccn1
7.05 to 10.00

Quickly give me recorded pEC50 for Cc1ccc(-c2ccccc2C(=O)N2CCC[C@H]2C(=O)Nc2ccc(/C=C/c3ccc(NC(=O)[C@@H]4CCCN4C(=O)c4ccccc4-c4ccc(C)s4)cc3)cc2)s1
5.00 to 6.00

Quickly give me recorded pEC50 for COc1ccc(OC)c(C(=O)N2CCC[C@H]2C(=O)Nc2ccc(/C=C/c3ccc(NC(=O)[C@@H]4CCCN4C(=O)c4cc(OC)ccc4OC)cc3)cc2)c1
6.00 to 7.00

Quickly give me recorded pEC50 for O=C(Nc1ccc(/C=C/c2ccc(NC(=O)[C@@H]3CCCN3C(=O)C3CCC3)cc2)cc1)[C@@H]1CCCN1C(=O)c1cccnc1
7.05 to 10.00

Quickly give me recorded pEC50 for CCOC(=O)N1CCC[C@H]1C(=O)Nc1ccc(/C=C/c2ccc(NC(=O)[C@@H]3CCCN3C(=O)OCC)cc2)cc1
6.00 to 7.00

Quickly give me recorded pEC50 for COC(=O)N1c2ccccc2C[C@H]1C(=O)N1CCC[C@H]1C(=O)Nc1ccc(/C=C/c2ccc(NC(=O)[C@@H]3CCCN3C(=O)[C@@H]3Cc4ccccc4N3C(=O)OC)cc2)cc1
5.00 to 6.00
